B1: Ribonuclease HI, P0A7Y4 (parent)
chain: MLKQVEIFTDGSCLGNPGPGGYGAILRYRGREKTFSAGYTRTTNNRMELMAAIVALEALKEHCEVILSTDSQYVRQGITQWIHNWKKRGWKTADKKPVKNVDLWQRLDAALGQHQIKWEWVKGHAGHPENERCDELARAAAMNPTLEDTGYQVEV

Variants of: B1
Experimental Conditions: Escherichia coli (strain K12); pH 3; Thermal; CD; glycine-HCl 10 mM; reversible: yes; structure 2RN2; whole UniProt chain shown
Mark Condition met for reported change of melting temperature, mutant - wild type (higher = more stable) of -1 °C or greater; mark Condition not met for anything smaller.

INSERT INTO measurements (mutant, class) VALUES
  ('K91R', 'Condition met'),
  ('D94E', 'Condition not met'),
  ('K95G', 'Condition met'),
  ('K91R D94E', 'Condition not met'),
  ('K95N', 'Condition met'),
  ('D94R K95G', 'Condition met'),
  ('G77A', 'Condition not met');
